Attribute: IC50
target_or_test_system: human ML1A (Homo sapiens, UniProt P48039)
Construct: expressed in transfected cells; host or cells: COS-1 cells, transient transfection (DEAE-dextran) with pcDNAI; membrane homogenates
Sequence (P48039 whole entry): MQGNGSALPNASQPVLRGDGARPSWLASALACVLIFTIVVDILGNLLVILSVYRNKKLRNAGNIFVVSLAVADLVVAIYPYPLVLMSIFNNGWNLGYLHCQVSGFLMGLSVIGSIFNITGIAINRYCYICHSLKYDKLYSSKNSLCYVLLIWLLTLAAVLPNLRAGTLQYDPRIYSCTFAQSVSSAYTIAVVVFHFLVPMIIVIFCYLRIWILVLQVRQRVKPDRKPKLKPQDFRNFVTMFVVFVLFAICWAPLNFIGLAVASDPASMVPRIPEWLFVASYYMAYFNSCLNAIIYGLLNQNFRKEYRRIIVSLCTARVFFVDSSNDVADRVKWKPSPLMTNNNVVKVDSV
protocol: Measurement of melatonergic binding: displacement of 2-[125I]-iodomelatonin from membranes of COS-1 cells transfected with human ML1A cDNA
applied_conditions: Binding affinity (IC50) at the human melatonin receptor, Table 5: displacement of 2-[125I]-Iodomelatonin; Formula I compounds with R1 and R = H, G = methylene

Find the measured IC50 of CCCC(=O)NC[C@@H]1C[C@H]1c1ccc(I)c(OC(F)(F)F)c1 (single isomer, unassigned) with human ML1A (Homo sapiens, UniProt P48039) as test system. 5 to 40 nM

Under human ML1A (Homo sapiens, UniProt P48039): report IC50 of CCCC(=O)NC[C@@H]1C[C@H]1c1cccc(OC(F)(F)F)c1 (single isomer, unassigned) . 5 to 40 nM

// fetch IC50 for CCCC(=O)NC[C@@H]1C[C@H]1c1cccc(O)c1 (single isomer, unassigned) ; system: human ML1A (Homo sapiens, UniProt P48039) 40 to 250 nM

Give reported IC50 for CCCC(=O)NC[C@@H]1C[C@H]1c1cccc(F)c1 (racemic) (human ML1A (Homo sapiens, UniProt P48039)) 40 to 250 nM

# assay system human ML1A (Homo sapiens, UniProt P48039): give IC50 of CCCC(=O)NC[C@@H]1C[C@H]1c1cc(F)ccc1I (single isomer, unassigned) 40 to 250 nM

// fetch IC50; item: CCCC(=O)NC[C@@H]1C[C@H]1c1cccc(C(F)(F)C(F)(F)F)c1 (single isomer, unassigned) ; system: human ML1A (Homo sapiens, UniProt P48039) 40 to 250 nM

Tell me IC50 of CCCC(=O)NC[C@@H]1C[C@H]1c1ccc(I)c(F)c1 (single isomer, unassigned) when tested on human ML1A (Homo sapiens, UniProt P48039). 40 to 250 nM

Provide measured IC50 on human ML1A (Homo sapiens, UniProt P48039) for CCCC(=O)NC[C@@H]1C[C@H]1c1cccc(OC(C)C)c1 (racemic) please. 40 to 250 nM

Below: the item to evaluate.
Answer briefly: IC50 recorded on human ML1A (Homo sapiens, UniProt P48039) for CCCC(=O)NC[C@@H]1C[C@H]1c1cc(F)ccc1Br (single isomer, unassigned) 5 to 40 nM
